# protocol.notes: Secondary assay for Activators of Human Pyruvate Kinase M2 isoform - Cell Titer Glo cytotoxicity assay
# measurement.conditions: HeLa viability, CellTiter-Glo ATP luminescence, 24 h; series mostly up to 57.5 µM
The other results are listed elsewhere or left out. Inconclusive results are not listed. The source made the active and inactive calls. Calls follow the shape of the dose curve; as a rule, active = well fitted curve in the direction sought with a large enough effect; inconclusive = small, poorly fitted or top-dose-only effect, or another doubt; inactive = no such curve, though single readings can be large or run the other way.
measured.property: outcome

The cases that follow already have their outcome on record.
Cc1ccc(Cn2ncc3c4sc(C)cc4n(C)c3c2=O)c(C)c1    inactive
O=C(NCc1cccs1)C1CCN(S(=O)(=O)c2ccc3c(c2)OCCO3)CC1    inactive
O=C(c1c(F)cccc1F)N1CCN(S(=O)(=O)c2ccc3c(c2)OCCO3)CC1    inactive
CN(C)N=Nc1ccc2nc[nH]c2c1    inactive
O=C(NCc1ccccn1)c1c(O)c2c([nH]c1=O)CCCC2    inactive

Need outcome, item O=S(=O)(NC1CCN(S(=O)(=O)c2ccc3c(c2)OCCO3)CC1)c1c(F)cccc1F
inactive

Need outcome, item Cn1c2cc(B(O)O)sc2c2cnn(Cc3ccccc3F)c(=O)c21
inactive

// provenance: PubChem BioAssay AID1898
